Assay: protease stability score; higher = more stable; yeast display proteolysis, trypsin and chymotrypsin;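 note: relative to predicted unfolded state with 0 unfolded-like and 1 meaning tenfold more protease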
readout: protease stability score
Please reply with the value in numeric form only.

- residue codes: "DEEERDMKIAEEVFLHAMHTGDWKKFFELMDPHVKVHIDGVDLHGREEASKIWKERIDKVKNMTFDVKHSHRQGNKVTLHTELHVNGKTTHLIVVLSKVNGRWTLEEMSEE"
  protease stability score: 1.21
- residue codes: "DEKTEIVSRIMIVFFHALLTGDWETLKKNADPHVKLEAEGRKSHGMEELVRWIHEEIKRIPGIRFELKRYDVQGDKVEIEGRVRINGVEFELIIESVIVDGKLKSIREEWR"
  protease stability score: 1.41
- residue codes: "SELDEDSEEAVREDIETIKTGNEEMFKRLVDPNARTDFNGKELVGREAVLHFWTMILKTMGVDHVHIEEVRIFNGRLIMHHTIHVGDKFIEVILFSEKFNGKWQIKEIEIR"
  protease stability score: 0.053

Field protease stability score (entry DDLEESLKHLLELIIQWIRTGDFHMLSQYADPDVKIHYNGREYIGREFFLQLMREMGANHFSVERIDFQGDKLHVEISFRVGDKETHTRVESWKFNGVWLLKHIEMR ) reads 0.463

Field protease stability score (entry SEDEEIQKKFWEEFMKALHTGDWHTLEKLLDPHVRYLVGEKHVHGRKKLEMEIRHLGVTNIEMHLHIESEERQGNKIILNGEFRRRINGVEIKTRAILILIKIDGRWVIDTEFIE ) reads 2.05

Field protease stability score (entry DEDVKTLEHLLRLINDINRTGDEERWMHEADPNTLVIYDGVESHGRESVMKLYHKHWEQLRIEEIHIHHIKMQGNKATIHGRLRGEIDGREKSFTIHVHIILINGQIQSITFRIE ) reads 1.02

Every entry's value here was drawn from the NTF2 design screens of Basanta et al. (2020).
